experiment: Metabolic stability in human liver microsomes assessed as parent compound remaining at 10 uM measured after 60 mins in presence of NADPH by LC/MS/MS analysis; assay type: ADME, Microsome; conditions: read-out: Stabilty
READOUT_TYPE: remaining at 1 h, 10 µM (%)
Please state the figure in %; there is no need to write the unit.

1) COc1ccc(/C=C\c2cc(OC)c(OC)c(OC)c2)cc1O [COMBRETASTATIN A4]: 5.2

Please list remaining at 1 h, 10 µM recorded for the compound COc1ccc([C@H]2[C@H](CF)C(=O)N2c2cc(OC)c(OC)c(OC)c2)cc1O
73

###

test: Metabolic stability in human liver microsomes assessed as parent compound remaining at 10 uM measured after 20 mins in presence of NADPH by LC/MS/MS analysis; format: ADME, Microsome; settings: read-out: Stabilty
Here, each record is paired with measured remaining at 20 min, 10 µM data.
Numbers only here, please. The scale is %.

1. COc1ccc(/C=C\c2cc(OC)c(OC)c(OC)c2)cc1O: 37.2

Proceed to the following item.
Check the records and state remaining at 20 min, 10 µM for COc1ccc([C@H]2[C@H](CF)C(=O)N2c2cc(OC)c(OC)c(OC)c2)cc1O
88.4

###

assay: Metabolic stability in human liver microsomes assessed as parent compound remaining at 10 uM measured after 30 mins in presence of NADPH by LC/MS/MS analysis; format: ADME, Microsome; settings: read-out: Stabilty
READOUT_TYPE: remaining at 0.5 h, 10 µM (%)
Please give a number only; it is taken to be in %.

1) COc1ccc([C@H]2[C@H](CF)C(=O)N2c2cc(OC)c(OC)c(OC)c2)cc1O: 90.9

Fill in reported remaining at 0.5 h, 10 µM for this entry: COc1ccc(/C=C\c2cc(OC)c(OC)c(OC)c2)cc1O
17.5

###

remaining at 10 min, 10 µM listing for selected compounds.
assay: Metabolic stability in human liver microsomes assessed as parent compound remaining at 10 uM measured after 10 mins in presence of NADPH by LC/MS/MS analysis; type: ADME, Microsome; conditions: read-out: Stabilty
Only the number, expressed in %, is required.

1) COc1ccc(/C=C\c2cc(OC)c(OC)c(OC)c2)cc1O [COMBRETASTATIN A4]: 57.1

Provide one value: measured remaining at 10 min, 10 µM of COc1ccc([C@H]2[C@H](CF)C(=O)N2c2cc(OC)c(OC)c(OC)c2)cc1O
91.6

###

assay: Half life in human liver microsomes at 10 uM in presence of NADPH by LC/MS/MS analysis; assay type: ADME, Microsome
READOUT_TYPE: half-life at 10 µM (min)
# number only, unit min dropped from output

Give half-life at 10 µM for COc1ccc(/C=C\c2cc(OC)c(OC)c(OC)c2)cc1O [COMBRETASTATIN A4]
13.9
